Reference for the values: patent US12252534

The following binders are listed with their measured MFI values.
target: T1, human CD3 on human T cells (Jurkat) (human, UniProt P07766 23-207; P04234 22-171; P09693 23-182)
T1 construct: whole, on cells; also called huCD3+; cell surface CD3 on human (Jurkat) T cells
T1 sequence (P07766 23-207, chain 1 of 3): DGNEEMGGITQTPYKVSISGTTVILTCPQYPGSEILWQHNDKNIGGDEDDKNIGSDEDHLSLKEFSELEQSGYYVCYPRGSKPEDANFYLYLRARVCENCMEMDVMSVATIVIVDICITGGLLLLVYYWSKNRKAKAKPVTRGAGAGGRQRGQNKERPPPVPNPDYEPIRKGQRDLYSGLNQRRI
T1 sequence (P04234 22-171, chain 2 of 3): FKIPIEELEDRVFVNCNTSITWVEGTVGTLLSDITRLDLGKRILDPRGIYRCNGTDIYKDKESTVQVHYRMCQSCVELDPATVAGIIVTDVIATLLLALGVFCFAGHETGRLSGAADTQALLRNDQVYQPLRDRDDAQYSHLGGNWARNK
T1 sequence (P09693 23-182, chain 3 of 3): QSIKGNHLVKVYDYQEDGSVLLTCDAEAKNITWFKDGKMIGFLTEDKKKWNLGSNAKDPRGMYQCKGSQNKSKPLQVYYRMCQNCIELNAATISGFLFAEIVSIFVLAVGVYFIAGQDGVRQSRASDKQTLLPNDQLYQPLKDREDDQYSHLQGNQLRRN
assay-protocol: flow cytometry, Jurkat cells, 0.32 nM antibody
measure-name: MFI

[[record]]
binder = "huL5H2 (heavy chain SEQ ID NO: 41 and light chain SEQ ID NO: 39) (Fab, V domains shown, also called VL5 kappa + H2 Fab) VH: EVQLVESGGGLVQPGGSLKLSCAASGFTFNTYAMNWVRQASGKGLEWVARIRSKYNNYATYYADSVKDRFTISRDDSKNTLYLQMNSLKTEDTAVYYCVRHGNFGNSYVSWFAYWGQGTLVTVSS VL: QAVVTQEPSLTVSPGGTVTLTCRSSTGAVTTSNYANWVQQKPDHLFRGLIGGTNKRAPGTPARFSGSLLGDKAALTISGAQPEDEAEYYCALWYSNLWVFGGGTKLTVLK"
measure_name = "MFI"
reported_result = 4430

[[record]]
binder = "HuL2H2 (Fab, V domains shown, Humanized Fab expressed in Expi293F; also called VL2 + VH2 humanized Fab) VH: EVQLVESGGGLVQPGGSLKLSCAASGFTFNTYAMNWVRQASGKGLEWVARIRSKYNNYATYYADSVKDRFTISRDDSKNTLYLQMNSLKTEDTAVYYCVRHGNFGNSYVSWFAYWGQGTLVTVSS VL: QAVVTQEPSLTVSPGGTVTLTCGSSTGAVTTSNYANWVQQKPGQAFRGLIYGTNKRAPWTPARFSGSLLGGKAALTISGAQPEDEAEYYCALWYSNLWVFGGGTKLTVL"
measure_name = "MFI"
reported_result = 1400

[[record]]
binder = "HuL1H1 (Fab, V domains shown, Detected with anti-human kappa; also called VL1 + VH1 humanized Fab) VH: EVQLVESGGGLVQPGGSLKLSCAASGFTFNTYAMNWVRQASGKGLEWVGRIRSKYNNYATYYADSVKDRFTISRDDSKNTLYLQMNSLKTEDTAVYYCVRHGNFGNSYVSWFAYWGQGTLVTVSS VL: QAVVTQEPSLTVSPGGTVTLTCGSSTGAVTTSNYANWFQQKPGQAPRTLIYGTNKRAPWTPARFSGSLLGGKAALTISGAQPEDEAEYYCALWYSNLWVFGGGTKLTVL"
measure_name = "MFI"
reported_result = 1400

